Reported IC50 values are given for each entry in this list.
- Test system: 616215-338-R-J1-PDC complex spheroid viability
- protocol: Anticancer human tumor 616215-338-R-J1-PDC patient-derived colon adenocarcinoma cell line growth inhibition [POLQ]
- experimental-conditions: curve of first compound; second compound 0.1 µM

# example entries with known answers
input: Please report IC50 for the following molecule: O=C(Nc1ccc(O)c(NS(=O)(=O)c2ccc(F)cc2)c1)c1ccc(-c2ccccc2)cc1 + Nc1ccc(C#CCN(C(=O)Cc2ncc(C(F)(F)F)cc2C(F)(F)F)c2ccc(F)cc2)nn1
output: > 10 µM

input: Please report IC50 for the following molecule: CC1COCCN1c1cc(C2(O)CC3CCC(C2)O3)c2cnn(-c3ccn[nH]3)c2n1 (stereo not drawn) + COC1C(OC(N)=O)C(O)C(Oc2ccc3c(O)c(NC(=O)c4ccc(O)c(CC=C(C)C)c4)c(=O)oc3c2C)OC1(C)C
output: 2.05 µM

Then there is this molecule:
input: Please report IC50 for the following molecule: CCc1cc2c(N3CCc4c(cc(Cn5ccnc5)cc4-c4cn(C)nc4C(F)(F)F)C3=O)ccnc2c(OC)n1 + COC1C(OC(N)=O)C(O)C(Oc2ccc3c(O)c(NC(=O)c4ccc(O)c(CC=C(C)C)c4)c(=O)oc3c2C)OC1(C)C
output: > 10 µM

---

- System: 616215-338-R-J1-PDC complex spheroid viability
- protocol: Anticancer human tumor 616215-338-R-J1-PDC cell line growth inhibition [POLQ];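 further: spheroids exposed to compounds for one week before readout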;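 on viability, T/C: percent viability relative to DMSO vehicle wells taken as 100%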
- experimental-conditions: second compound 1 µM; first compound 1 µM; stronger effect = lower value
metric-name: viability, T/C (%)
All answers are understood in %, so give the number only.

input: Please report viability, T/C for the following compound: CC1COCCN1c1cc(C2(O)CC3CCC(C2)O3)c2cnn(-c3ccn[nH]3)c2n1 (stereo not given) + Cc1cccc(N(C)C(=O)C2C(O)CCN2c2nc(C)cc(C(F)(F)F)c2C#N)c1
output: 70

input: Please report viability, T/C for the following compound: CCCS(=O)(=O)Nc1ccc(F)c(C(=O)c2c[nH]c3ncc(-c4ccc(Cl)cc4)cc23)c1F + Nc1ccc(C#CCN(C(=O)Cc2ncc(C(F)(F)F)cc2C(F)(F)F)c2ccc(F)cc2)nn1
output: 111

input: Please report viability, T/C for the following compound: O=C(Nc1ccc(O)c(NS(=O)(=O)c2ccc(F)cc2)c1)c1ccc(-c2ccccc2)cc1 + COC1C(OC(N)=O)C(O)C(Oc2ccc3c(O)c(NC(=O)c4ccc(O)c(CC=C(C)C)c4)c(=O)oc3c2C)OC1(C)C
output: 116

input: Please report viability, T/C for the following compound: CCCS(=O)(=O)Nc1ccc(F)c(C(=O)c2c[nH]c3ncc(-c4ccc(Cl)cc4)cc23)c1F + Cc1cccc(N(C)C(=O)C2C(O)CCN2c2nc(C)cc(C(F)(F)F)c2C#N)c1
output: 105

input: Please report viability, T/C for the following compound: COc1cc(C2c3cc4c(cc3C(OC3OC5COC(C)OC5C(O)C3O)C3COC(=O)C23)OCO4)cc(OC)c1O (stereo not given) + Nc1ccc(C#CCN(C(=O)Cc2ncc(C(F)(F)F)cc2C(F)(F)F)c2ccc(F)cc2)nn1
output: 37

input: Please report viability, T/C for the following compound: COc1cc(C2c3cc4c(cc3C(OC3OC5COC(C)OC5C(O)C3O)C3COC(=O)C23)OCO4)cc(OC)c1O (stereo not given) + COC1C(OC(N)=O)C(O)C(Oc2ccc3c(O)c(NC(=O)c4ccc(O)c(CC=C(C)C)c4)c(=O)oc3c2C)OC1(C)C
output: 86.1

Then there is this compound:
input: Please report viability, T/C for the following compound: COc1cccc2c1C(=O)c1c(O)c3c(c(O)c1C2=O)CC(O)(C(=O)CO)CC3OC1CC(N)C(O)C(C)O1 (stereo not given) + Cc1cccc(N(C)C(=O)C2C(O)CCN2c2nc(C)cc(C(F)(F)F)c2C#N)c1
output: 48.3
